- Test System: PAI-1 wild type, active (human, UniProt P05121 24-402)
- Sequence (P05121 24-402): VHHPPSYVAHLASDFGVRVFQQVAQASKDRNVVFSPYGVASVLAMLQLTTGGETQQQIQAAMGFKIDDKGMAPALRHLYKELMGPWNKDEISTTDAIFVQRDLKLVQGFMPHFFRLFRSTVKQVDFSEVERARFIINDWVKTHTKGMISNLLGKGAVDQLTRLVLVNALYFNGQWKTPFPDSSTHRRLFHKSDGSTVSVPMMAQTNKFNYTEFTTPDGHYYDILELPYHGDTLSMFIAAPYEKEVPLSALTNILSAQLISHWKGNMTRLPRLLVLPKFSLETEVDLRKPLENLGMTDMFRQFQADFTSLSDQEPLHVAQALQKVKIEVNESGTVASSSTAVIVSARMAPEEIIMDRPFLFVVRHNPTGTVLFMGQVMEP
- Assay Notes: branched SELEX with high-throughput sequencing; PAI-1 immobilised on monoclonal anti-PAI-1 antibody mAb-1; HBS (10 mM HEPES pH 7.4, 140 mM NaCl), 2 mM MgCl2, 2 mM CaCl2, 0.1% BSA; RNA pool 100 nM; PAI-1 captured on antibody-coated wells; 45 min; binding temperature not stated (PAI-1 capture at room temperature); high values mean tight binding;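 note: Pool frequency after one selection round with this target divided by frequency before selection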
- Condition Context: protein: recombinant; tags: N-terminal His6; structured_RNA; 2'-F pyrimidines
Everything with binding signal lower than 2 enrichment factor is N; everything else, including exactly 2 enrichment factor, is Y.

In [3]: df
Out[3]:
                                biosequence  class
0  GGGGCCACCAACGACAUUUAUCGAAUUGAUAACCUUACGCGAGAGCGUAGUUCGUUGAUAUAAAUAGUGCCCAUGGAUC      Y
1  GGGGCCACCAACGACAUUCAGCGAUGUAGUGCACAUUGCACGACCAUGAUGGAGUUGAUAUAAAUAGUGCCCAUGGAUC      N
2  GGGGCCACCAACGACAUUGAACCACGUAGGCUCGUUUCUGAGCCGAUCUCGAUGUUGAUAUAAAUAGUGCCCAUGGAUC      Y
3  GGGGCCACCAACGACAUUUGCAUAAUGCAUCUAUAGUCGCUAGAGACUAGCUCGUUGAUAUAAAUAGUGCCCAUGGAUC      N
4  GGGGCCACCAACGACAUUUCACACUGUAAGGCCAUGUGCCGACUAGAAAUUGCGUUGAUAUAAAUAGUGCCCAUGGAUC      N
5  GGGGCCACCAACGACAUUGGUCACAUGACCACCGUAUGAUUUACUCAUAGUUCGUUGAUAUAAAUAGUGCCCAUGGAUC      Y

----------
Below, each entry is listed alongside its reported binding signal.
- Test System: PAI-1 wild type, active (human, UniProt P05121 24-402)
- Assay Notes: branched SELEX with high-throughput sequencing; PAI-1 immobilised on polyclonal anti-PAI-1 antibody; HBS (10 mM HEPES pH 7.4, 140 mM NaCl), 2 mM MgCl2, 2 mM CaCl2, 0.1% BSA; RNA pool 100 nM; PAI-1 captured on antibody-coated wells; 45 min; binding temperature not stated (PAI-1 capture at room temperature); high values mean tight binding;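 note: Pool frequency after one selection round with this target divided by frequency before selection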
- Condition Context: protein: recombinant; tags: N-terminal His6; structured_RNA; 2'-F pyrimidines
Parameter Measured: binding signal (enrichment factor)

>>> df
                                biosequence                               test_system  unit_of_measurement  data_value
0  GGGGCCACCAACGACAUUUACCGUCUGGGUAACCUUGUACGAUAGUACAGUUCGUUGAUAUAAAUAGUGCCCAUGGAUC  PAI-1 wild type, active (human, UniProt P05121 24-402)    enrichment factor        1.31
1  GGGGCCACCAACGACAUUGUCGUAGGCAAGUGUACGAAUCUUUGCUGACCAGUGUUGAUAUAAAUAGUGCCCAUGGAUC  PAI-1 wild type, active (human, UniProt P05121 24-402)    enrichment factor        2.67
2  GGGGCCACCAACGACAUUGCGCGAAGCGCUUACGCGUGUUGAUCGAAUGUUGUUGAUAUAAAUAGUGCCCAUGGAUC  PAI-1 wild type, active (human, UniProt P05121 24-402)    enrichment factor         1.4
3  GGGGCCACCAACGACAUUCUACGUCGUAGUCGCUUAGCGAUGACCGUUAGAUGUUGAUAUAAAUAGUGCCCAUGGAUC  PAI-1 wild type, active (human, UniProt P05121 24-402)    enrichment factor        0.74
4  GGGGCCACCAACGACAUUUCGCAGCUUCGUAGUACAGGCGCAAGUUGACACAUGUUGAUAUAAAUAGUGCCCAUGGAUC  PAI-1 wild type, active (human, UniProt P05121 24-402)    enrichment factor        1.47
5  GGGGCCACCAACGACAUUCCGUCCGUGUUCAGUUAACACGCAUGUGUUUUGUGGUUGAUAUAAAUAGUGCCCAUGGAUC  PAI-1 wild type, active (human, UniProt P05121 24-402)    enrichment factor        1.36
6  GGGGCCACCAACGACAUUCGCACUGUAGCUAUGUGGAUAGCGACCAGAAUUUCGUUGAUAUAAAUAGUGCCCAUGGAUC  PAI-1 wild type, active (human, UniProt P05121 24-402)    enrichment factor        2.51
